# kinase still bound, per cent of control annotations
- target_of_assay: PRKG1 (human) (UniProt Q13976)
- Sequence (Q13976 whole entry, looked up): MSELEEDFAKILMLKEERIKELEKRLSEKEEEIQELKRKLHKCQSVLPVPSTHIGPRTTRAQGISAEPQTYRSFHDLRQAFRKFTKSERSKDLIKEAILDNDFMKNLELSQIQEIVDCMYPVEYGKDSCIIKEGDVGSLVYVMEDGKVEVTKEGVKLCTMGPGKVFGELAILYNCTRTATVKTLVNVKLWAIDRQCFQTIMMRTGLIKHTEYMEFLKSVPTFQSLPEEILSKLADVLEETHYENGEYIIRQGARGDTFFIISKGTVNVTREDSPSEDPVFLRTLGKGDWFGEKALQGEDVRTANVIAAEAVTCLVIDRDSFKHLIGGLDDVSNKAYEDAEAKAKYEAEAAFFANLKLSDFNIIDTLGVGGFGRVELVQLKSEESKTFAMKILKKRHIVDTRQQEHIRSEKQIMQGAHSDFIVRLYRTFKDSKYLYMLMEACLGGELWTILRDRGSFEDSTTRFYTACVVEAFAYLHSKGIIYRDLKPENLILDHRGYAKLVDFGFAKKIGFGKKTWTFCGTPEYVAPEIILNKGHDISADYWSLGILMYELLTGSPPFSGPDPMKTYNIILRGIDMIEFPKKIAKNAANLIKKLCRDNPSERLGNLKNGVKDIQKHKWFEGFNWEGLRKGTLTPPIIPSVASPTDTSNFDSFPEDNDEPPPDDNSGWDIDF
- protocol_description: KINOMEscan competition binding
- stated_conditions: compound 10.0 µM

{"smi": "COc1cc(N2CCC(O)CC2)ccc1Nc1ncc2c(n1)N1CCc3cccc(c31)C(=O)N2C", "kinase still bound, per cent of control / %": 85}
{"smi": "CN1C(=O)c2ccccc2N(C)c2nc(Nc3ccc(N4CCC(O)CC4)cc3)ncc21", "kinase still bound, per cent of control / %": 100}
{"smi": "O=C1NC(=O)/C(=C/c2c[nH]c(=O)c(-c3ccc(N4CCNCC4)nc3)c2)S1", "kinase still bound, per cent of control / %": 100}
{"smi": "COc1cc(N2CCN(C)CC2)ccc1Nc1ncc2c(n1)N(C)c1ccccc1N(C)C2=O", "kinase still bound, per cent of control / %": 100}
{"smi": "CN1CCN(c2ccc(C(=O)Nc3ncc4c(n3)N(C)c3ccccc3C(=O)N4C)cc2)CC1", "kinase still bound, per cent of control / %": 100}
{"smi": "COc1cc(N2CCN(C)CC2)ccc1Nc1ncc2c(n1)N(C)c1sccc1C(=O)N2C", "kinase still bound, per cent of control / %": 100}
{"smi": "COc1cc(N2CCN(C)CC2)ccc1Nc1ncc2c(n1)Nc1ccccc1NC2=O", "kinase still bound, per cent of control / %": 100}
{"smi": "CN1C(=O)c2ccccc2N(C)c2nc(NS(=O)(=O)c3ccc(N)cc3)ncc21", "kinase still bound, per cent of control / %": 100}
